- targetEntity: Carbonic anhydrase 9 (Homo sapiens)
- testSummary: Inhibition of recombinant human membrane bound carbonic anhydrase 9 expressed in Escherichia coli pretreated for 15 mins prior to testing by stopped-flow assay
Task for the reader: assign each of the following molecules its reported Ki.
Output spec: scalar in nM, unitless text.

Q: For the molecule "NS(=O)(=O)c1ccc(NC(=S)N/N=C2\C(=O)Nc3c(Cl)cccc32)cc1" , what Ki is on record?
Ans: 13.3

Q: Which Ki is listed for "NS(=O)(=O)c1ccc(NC(=S)N/N=C2\C(=O)Nc3c(Cl)cc(Cl)cc32)cc1" ?
Ans: 21.3

Q: Bench note: what Ki did "NS(=O)(=O)c1ccc(NC(=S)N/N=C2\C(=O)Nc3ccc(OC(F)(F)F)cc32)cc1" show?
Ans: 45.7

Q: Entry "NS(=O)(=O)c1ccc(NC(=S)N/N=C2\C(=O)Nc3ccc(F)cc32)cc1" has what Ki?
Ans: 38.8

Q: Fill in the blank: the reported Ki of "NS(=O)(=O)c1ccc(NC(=S)N/N=C2\C(=O)Nc3ccccc32)cc1" is ____.
Ans: 66.3

Q: What value of measured Ki is listed for "NS(=O)(=O)c1ccc(NC(=S)N/N=C2\C(=O)Nc3ccc(Br)cc32)cc1" ?
Ans: 64.8

Q: Name the recorded Ki for "NS(=O)(=O)c1ccc(NC(=S)N/N=C2\C(=O)Nc3ccc(S(=O)(=O)O)cc32)cc1" .
Ans: 34.4

The reported measurements were obtained from ChEMBL document CHEMBL4033724.
